test: logP by octanol/water partition coefficient
Result type: logP
Give the figure only, with no unit attached.

# get_value(readout='logP', item= Cc1cc(-c2ccccc2)nnc1N1CCN(c2ncccn2)CC1.Cl.Cl [Compound 16, dihydrochloride salt] ) 2.29

---

assay: physchem; conditions: 37 °C, water, aqueous solubility
Result type: solubility

// returns reported solubility for input Cc1cc(-c2ccccc2)nnc1N1CCN(c2ncccn2)CC1.Cl.Cl [Compound 16] > 322 mg/mL

---

test: in vivo; conditions: Beagle, dog, iv, […], Vz
Result type: Vd (L)
The answer is to be given in L; state only the numeric part.

Tell me the measured Vd of Cc1cc(-c2ccccc2)nnc1N1CCN(c2ncccn2)CC1.Cl.Cl , please. 95.1

---

assay: in vivo; settings: male, Beagle, dog, po
Result type: bioavailability (%)
Report the value in % with no unit label.

So what does the record say about bioavailability for Cc1cc(-c2ccccc2)nnc1N1CCN(c2ncccn2)CC1.Cl.Cl ? 21

---

test: PK assessment in mice, plasma and brain after single oral dose; conditions: C57BL/6, mouse, brain
Result type: Tmax

Can you look up the measured Tmax of Cc1cc(-c2ccccc2)nnc1N1CCN(c2ncccn2)CC1.Cl.Cl [Compound 16] for me? ~15 min

---

Assay: PK assessment in Beagle dog
Details: in vivo, po, […]
Method: Plasma samples obtained from dog pharmacokinetic studies were analyzed using reversed phase HPLC with tandem mass spectrometric detection. […] Calibration standards were processed along with the samples, and the concentration of Minozac [2-(4-(4-methyl-6-phenylpyridazin-3-yl)piperazin-1-yl)pyrimidine dihydrochloride salt] determined using a regression equation. […] The pharmacokinetics of Minozac was determined at 2.5 mg/kg following oral administration by gavage of an aqueous solution. […]
Result type: bioavailability (%)
Give the value in % but do not write % after it.

Requested read-out: bioavailability. Entry: Cc1cc(-c2ccccc2)nnc1N1CCN(c2ncccn2)CC1.Cl.Cl 23

---

test: PK assessment in mice, plasma and brain after single oral dose; settings: C57BL/6, mouse, plasma
Result type: half-life

Param item = Cc1cc(-c2ccccc2)nnc1N1CCN(c2ncccn2)CC1.Cl.Cl ; retrieve measured half-life. ~15 min

---

test: in vivo; settings: male, Beagle, dog
Result type: bioavailability (%)
Use % as the unit, but write only the number.

// lookup bioavailability for Cc1cc(-c2ccccc2)nnc1N1CCN(c2ncccn2)CC1.Cl.Cl 16
